B1: H2-Kb / Ed16-1 (parent complex)
chain 1: GEQVEQRPPHLSVREGDSAVITCTYTDPNSYYFFWYKQEPGASLQLLMKVFSSTEINEGQGFTVLLNKKDKRLSLNLTAAHPGDSAAYFCAVSGSNNRIFFGDGTQLVVKP
chain 2: EAAVTQSPRSKVAVTGGKVTLSCHQTNNHDYMYWYRQDTGHGLRLIHYSYVADSTEKGDIPDGYKASRPSQENFSLILELASLSQTAVYFCASRTGTDYTFGSGTRLLVI
chain 3: not shown
chain 4: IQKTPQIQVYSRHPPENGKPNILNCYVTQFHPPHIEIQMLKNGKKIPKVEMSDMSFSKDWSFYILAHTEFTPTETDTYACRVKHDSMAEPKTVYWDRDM
chain 5: SIINFEKL

Variants of: B1
Assay: % of reporter cells activated (NFAT-GFP), raw; note: test concentration or dose not given here
measureName: ratio to parent
A bare number is all that is needed in reply.

chain 5 I2W    0.749
chain 5 E6D    0.371
chain 5 L8D    0.834
chain 5 F5S    0.917
chain 5 E6T    0.0356

What measured ratio to parent goes with chain 5 L8K ?
0.951

What measured ratio to parent goes with chain 5 E6P ?
0.00132
